biological target: Nuclear receptor subfamily 4 group A member 2 (Homo sapiens) (UniProt P43354); assay: ATG_NURR1_TRANS: Attagene TRANS-FACTORIAL HepG2 Assay for human Nuclear Receptor Related Protein 1 (NURR1) (AID 2282985); conditions: HepG2 Attagene TRANS reporter, mRNA readout
Sequence (P43354 whole entry, looked up): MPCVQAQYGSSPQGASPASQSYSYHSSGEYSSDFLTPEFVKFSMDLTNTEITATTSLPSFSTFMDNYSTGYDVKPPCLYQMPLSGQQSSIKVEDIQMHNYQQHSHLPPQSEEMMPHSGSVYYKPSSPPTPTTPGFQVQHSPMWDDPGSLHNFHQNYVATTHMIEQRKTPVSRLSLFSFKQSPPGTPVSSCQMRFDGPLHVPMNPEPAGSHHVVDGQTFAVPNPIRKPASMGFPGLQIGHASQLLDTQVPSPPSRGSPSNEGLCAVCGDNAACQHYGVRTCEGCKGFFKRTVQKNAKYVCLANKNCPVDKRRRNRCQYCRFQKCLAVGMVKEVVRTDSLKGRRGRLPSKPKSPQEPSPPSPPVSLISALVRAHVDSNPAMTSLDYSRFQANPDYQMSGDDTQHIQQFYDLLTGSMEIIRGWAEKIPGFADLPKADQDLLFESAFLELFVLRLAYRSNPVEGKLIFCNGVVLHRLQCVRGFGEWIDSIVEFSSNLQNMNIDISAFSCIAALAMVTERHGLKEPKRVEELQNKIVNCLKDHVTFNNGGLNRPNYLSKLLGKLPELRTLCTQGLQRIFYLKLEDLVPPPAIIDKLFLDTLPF
Inconclusive results are not listed. Active and inactive are the calls of the source. The calls were made as follows: active = hit-call score of the fitted dose curve at least 0.9, where 1 is the maximum; inconclusive = response in the unintended direction; inactive = score below 0.9.

- Compound: "O=C(Nc1ccc(Br)cc1)c1cc(Br)cc(Br)c1O"
  AC50: "inactive"
- Compound: "CCCCCCCCCCCCCCC(Br)C(=O)O (stereo not drawn)"
  AC50: "26.4 µM (active)"
- Compound: "OC(Cc1ccccc1Cl)(Cn1cncn1)C1(Cl)CC1 (stereo not drawn)"
  AC50: "inactive"
- Compound: "CCC(C)(C#N)N=NC(C)(C#N)CC (stereo not drawn)"
  AC50: "inactive"
- Compound: "NC(=O)CCl"
  AC50: "inactive"
- Compound: "CCOCn1c(-c2ccc(Cl)cc2)c(C#N)c(Br)c1C(F)(F)F"
  AC50: "inactive"
- Compound: "ClCCN1CCOCC1"
  AC50: "inactive"
- Compound: "CCOC(=O)CCN(SN(C)C(=O)Oc1cccc2c1OC(C)(C)C2)C(C)C"
  AC50: "157 µM (active)"
- Compound: "CC1(C)COP(Oc2ccccc2)OC1"
  AC50: "inactive"
- Compound: "OC[C@@H](O)[C@H]1O[C@@H]2O[C@H](C(Cl)(Cl)Cl)O[C@@H]2[C@H]1O"
  AC50: "inactive"
- Compound: "O=NN1CCCCCC1"
  AC50: "inactive"
- Compound: "O=C1C=CC(=O)c2ccccc21"
  AC50: "inactive"
- Compound: "O=C1c2ccccc2C(=O)C1C(=O)C(c1ccccc1)c1ccc(Cl)cc1 (stereo not drawn)"
  AC50: "4.69 µM (active)"

* * *

target: human Fibroblast Growth Factor Receptor 1 (FGFR1), FGFR1 (gene 2260); assay: NVS_ENZ_hFGFR1: NovaScreen (NVS) Enzymatic Assay for human Fibroblast Growth Factor Receptor 1 (FGFR1) (AID 2283159)
Inconclusive results are not listed. The source made the active and inactive calls. Rule for the calls: active = hit-call score of the fitted dose curve at least 0.9, where 1 is the maximum; inconclusive = response in the unintended direction; inactive = score below 0.9.
Classes used: Yes for active, No for inactive

- Smiles Text: "O=C(N[C@H]1CN2CCC1CC2)c1ccc2c(c1)OCCO2"
  Label Value: "No"
- Smiles Text: "COc1nn(C(=O)NS(=O)(=O)c2ccccc2OC(F)(F)F)c(=O)n1C"
  Label Value: "No"
- Smiles Text: "CCCCCCCCCCCCc1cccc(S(=O)(=O)O)c1"
  Label Value: "Yes"
- Smiles Text: "CCCCCCCCCCCCOS(=O)(=O)O"
  Label Value: "Yes"
- Smiles Text: "O=C(O)C1(c2ccc3c(c2)OC[C@H](Cc2ccc(-c4ccccc4)cc2)[C@H]3O)CCCC1"
  Label Value: "No"
- Smiles Text: "CC(C)O.CC(C)O.OCCN(CCO)CCO.OCCN(CCO)CCO.[Ti]"
  Label Value: "Yes"

* * *

read-out: Interferon-gamma inducible Protein 10 (IP10), CXCL10 (gene 3627); assay: BSK_BE3C_IP10: BioMAP Diversity Plus: BE3C Assay for Interferon-gamma inducible Protein 10 (IP10) Biomarker Activity (AID 2283034); settings: primary human bronchial epithelial cells; actives raise or lower the signal
Calls of active or inactive are those of the source. Rule for the calls: active = hit-call score of the fitted dose curve at least 0.9, where 1 is the maximum; inactive = score below 0.9.
Outcome codes: y for active, n for inactive

- Compound: "CN(C)C(=S)S"
  Label Value: "y"
- Compound: "CCCCCCCCCCCCN(C)C"
  Label Value: "n"
- Compound: "CCCCOC(=O)COC(=O)c1ccccc1C(=O)OCCCC"
  Label Value: "n"
- Compound: "O=C(CCl)NCO"
  Label Value: "n"
- Compound: "CC(C)(COCC1CO1)COCC1CO1 (stereo not given)"
  Label Value: "n"
- Compound: "CC(C)O.CC(C)O.OCCN(CCO)CCO.OCCN(CCO)CCO.[Ti]"
  Label Value: "n"
- Compound: "O=[N+]([O-])c1cccc2ccccc12"
  Label Value: "n"
- Compound: "NC(=O)CCl"
  Label Value: "n"
- Compound: "C=CC(Cl)CCl (stereo not given)"
  Label Value: "n"
- Compound: "Oc1ccc(Cc2ccc(O)cc2)cc1"
  Label Value: "n"
- Compound: "CCOP(=S)(OCC)OP(=S)(OCC)OCC"
  Label Value: "n"
- Compound: "CCC(C)(C#N)N=NC(C)(C#N)CC (stereo not given)"
  Label Value: "n"
- Compound: "COc1ccccc1N"
  Label Value: "n"
- Compound: "CCCCN(CCCC)C(=S)[S-].CCCCN(CCCC)C(=S)[S-].[Ni+2]"
  Label Value: "n"
- Compound: "Oc1cc(Cl)c(Cl)cc1Cl"
  Label Value: "y"
